Attribution: ChEMBL document CHEMBL1149815

- tested_target: Calcium-activated potassium channel subunit alpha-1 (Rattus norvegicus)
- measurement_protocol: Induction of BK channel mediated vasorelaxation activity in Kcl-induced contraction in Wistar rat aorta
- Format: tissue-based
measurement_label: Emax (%)

substance_smiles	result_number
COc1ccccc1C(=O)NCc1ccccc1[N+](=O)[O-]	29
O=C(Cc1ccccc1C(F)(F)F)Nc1ccccc1F	55
O=C(Cc1ccccc1O)NCc1ccccc1	33
COc1ccccc1C(=O)NCc1ccccc1	23
COc1ccccc1CNC(=O)c1ccccc1OC	16
Cc1cc([N+](=O)[O-])ccc1NC(=O)Cc1ccccc1O	84
COc1ccc([N+](=O)[O-])cc1NC(=O)Cc1ccccc1O	82
COc1ccccc1CC(=O)NCc1ccccc1	25
O=C(Cc1ccccc1C(F)(F)F)Nc1cc(Cl)ccc1O	50
COc1ccccc1CC(=O)Nc1cc(C)ccc1O	61
O=C(Cc1ccccc1O)Nc1ccc([N+](=O)[O-])cc1	79
O=C(Cc1ccccc1O)Nc1ccccc1	40
COc1ccccc1CC(=O)Nc1ccccc1F	28
COc1ccccc1CC(=O)Nc1cc([N+](=O)[O-])ccc1OC	21
O=C(NCc1ccccc1[N+](=O)[O-])c1ccccc1O	47
O=C(Cc1ccccc1O)NCc1ccccc1[N+](=O)[O-]	40
O=C(NCc1ccccc1)c1ccccc1O	47
COc1ccccc1CC(=O)Nc1ccc([N+](=O)[O-])cc1	29
COc1ccccc1CC(=O)Nc1cc(Cl)ccc1O	37
COc1ccccc1CNC(=O)Cc1ccccc1O	40
O=C(Cc1ccccc1O)Nc1ccccc1F	43
COc1ccccc1CNC(=O)Cc1ccccc1OC	22

====

- tested_target: Calcium-activated potassium channel subunit alpha-1 (Rattus norvegicus, UniProt Q62976)
- Sequence (Q62976 whole entry): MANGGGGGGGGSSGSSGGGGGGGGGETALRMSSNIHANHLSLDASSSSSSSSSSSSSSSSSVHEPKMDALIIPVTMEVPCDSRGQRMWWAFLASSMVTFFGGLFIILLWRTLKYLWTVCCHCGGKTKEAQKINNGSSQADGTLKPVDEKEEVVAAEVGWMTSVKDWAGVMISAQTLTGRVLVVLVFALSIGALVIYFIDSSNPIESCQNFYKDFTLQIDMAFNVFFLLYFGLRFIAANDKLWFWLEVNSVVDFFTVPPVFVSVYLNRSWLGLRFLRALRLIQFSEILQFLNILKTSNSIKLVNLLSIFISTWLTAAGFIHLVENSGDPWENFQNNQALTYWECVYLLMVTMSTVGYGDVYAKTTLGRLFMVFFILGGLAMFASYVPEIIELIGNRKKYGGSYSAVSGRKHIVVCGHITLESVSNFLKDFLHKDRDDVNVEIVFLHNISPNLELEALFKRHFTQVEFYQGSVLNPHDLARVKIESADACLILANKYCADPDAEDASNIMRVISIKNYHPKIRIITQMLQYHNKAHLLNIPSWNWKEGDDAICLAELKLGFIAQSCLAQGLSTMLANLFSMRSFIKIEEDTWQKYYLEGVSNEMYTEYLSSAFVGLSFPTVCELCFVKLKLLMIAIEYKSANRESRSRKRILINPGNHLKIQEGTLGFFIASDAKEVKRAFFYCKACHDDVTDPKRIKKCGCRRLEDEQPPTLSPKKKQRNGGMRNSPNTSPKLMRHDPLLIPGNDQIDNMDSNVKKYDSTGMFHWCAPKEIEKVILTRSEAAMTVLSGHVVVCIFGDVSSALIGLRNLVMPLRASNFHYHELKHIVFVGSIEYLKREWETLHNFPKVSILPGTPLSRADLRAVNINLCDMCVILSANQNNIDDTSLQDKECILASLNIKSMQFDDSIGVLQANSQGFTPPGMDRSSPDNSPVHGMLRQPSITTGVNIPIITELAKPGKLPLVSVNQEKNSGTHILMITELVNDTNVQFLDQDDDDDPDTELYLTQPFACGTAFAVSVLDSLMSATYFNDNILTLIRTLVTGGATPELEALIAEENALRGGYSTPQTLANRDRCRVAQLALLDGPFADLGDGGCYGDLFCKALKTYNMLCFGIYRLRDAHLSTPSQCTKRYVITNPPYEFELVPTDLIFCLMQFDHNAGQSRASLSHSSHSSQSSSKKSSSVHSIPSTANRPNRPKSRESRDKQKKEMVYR
- measurement_protocol: Induction of BK channel mediated vasorelaxation activity in Kcl-induced contraction in Wistar rat aorta
Readings of IC50 for the listed molecules

substance_smiles	tested_target	IC50 / µM
O=C(Cc1ccccc1C(F)(F)F)Nc1ccccc1F	Calcium-activated potassium channel subunit alpha-1 (Rattus norvegicus, UniProt Q62976)	27.5
COc1ccccc1CC(=O)Nc1cc(C)ccc1O	Calcium-activated potassium channel subunit alpha-1 (Rattus norvegicus, UniProt Q62976)	24.5
COc1ccc([N+](=O)[O-])cc1NC(=O)Cc1ccccc1O	Calcium-activated potassium channel subunit alpha-1 (Rattus norvegicus, UniProt Q62976)	18.2
Cc1cc([N+](=O)[O-])ccc1NC(=O)Cc1ccccc1O	Calcium-activated potassium channel subunit alpha-1 (Rattus norvegicus, UniProt Q62976)	20
O=c1[nH]c2cc(C(F)(F)F)ccc2n1-c1cc(C(F)(F)F)ccc1O	Calcium-activated potassium channel subunit alpha-1 (Rattus norvegicus, UniProt Q62976)	4.37
O=C(Cc1ccccc1O)Nc1ccc([N+](=O)[O-])cc1	Calcium-activated potassium channel subunit alpha-1 (Rattus norvegicus, UniProt Q62976)	22.9
